B1: LINE1-full (parent)
chain: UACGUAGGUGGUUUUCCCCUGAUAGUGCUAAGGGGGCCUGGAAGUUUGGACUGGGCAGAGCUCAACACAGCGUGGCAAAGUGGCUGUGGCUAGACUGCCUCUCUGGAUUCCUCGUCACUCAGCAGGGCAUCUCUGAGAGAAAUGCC

variants of: B1; assay: self-cleavage, relative activity (ratio to wild type); higher = more cleavage; in vitro, sequencing; the parent is a self-cleaving ribozyme
Exercise: state measured self-cleavage for each of the variants provided.
One number for each entry.

Check out these entries, answers already filled in.
INSERT INTO assay_data (mut, parameter, value_measured) VALUES
  ('C37U U119A', 'self-cleavage', 0.99),
  ('U12C C101U', 'self-cleavage', 1.02),
  ('G25A A65C', 'self-cleavage', 0.02),
  ('A67U A141G', 'self-cleavage', 0.13),
  ('A77U A121U', 'self-cleavage', 1.27);

State the recorded self-cleavage for every item in the following list.
1. U9C U39C
2. C103U U130C
3. C68U A117U
4. U47C U130A
5. G82U U134G
6. U109A C123U
7. U39C U100C

Response:
[1.14, 0.84, 0.25, 1.31, 1.3, 1.34, 2.36]

State the recorded self-cleavage for every item in the following list.
1. A50G C84U
2. G55C A117C
3. A78G A142G
4. G82U U102C
5. A6G U81C
6. G32A A94C

Response:
1: 0.11; 2: 0.42; 3: 1.21; 4: 1.45; 5: 1.78; 6: 0.04

State the recorded self-cleavage for every item in the following list.
1. U85A U100C
2. A78G A92U
3. G54U G105A
4. G32A A79G
5. U52C C71U
6. U47A A124C

Response:
[0.21, 0.64, 0.87, 1.26, 0.7, 1.18]

State the recorded self-cleavage for every item in the following list.
1. A69C A142G
2. U52A U115A
3. U20C C118G
4. A94C A129G
5. A42U A77G

Response:
1: 0.11; 2: 1.34; 3: 1.45; 4: 0; 5: 1.72

State the recorded self-cleavage for every item in the following list.
1. U109G A121G
2. U1C G4A
3. C51U U104C
4. G60U A65U

Response:
1: 0; 2: 0.46; 3: 1.62; 4: 0.02
